meta.source: patent US9926282B2

Can you tell me IC50 for the items I'm about to list?
# target system: ROCK2 (Homo sapiens (Human), UniProt O75116)
# Sequence (O75116 whole entry, species assumed): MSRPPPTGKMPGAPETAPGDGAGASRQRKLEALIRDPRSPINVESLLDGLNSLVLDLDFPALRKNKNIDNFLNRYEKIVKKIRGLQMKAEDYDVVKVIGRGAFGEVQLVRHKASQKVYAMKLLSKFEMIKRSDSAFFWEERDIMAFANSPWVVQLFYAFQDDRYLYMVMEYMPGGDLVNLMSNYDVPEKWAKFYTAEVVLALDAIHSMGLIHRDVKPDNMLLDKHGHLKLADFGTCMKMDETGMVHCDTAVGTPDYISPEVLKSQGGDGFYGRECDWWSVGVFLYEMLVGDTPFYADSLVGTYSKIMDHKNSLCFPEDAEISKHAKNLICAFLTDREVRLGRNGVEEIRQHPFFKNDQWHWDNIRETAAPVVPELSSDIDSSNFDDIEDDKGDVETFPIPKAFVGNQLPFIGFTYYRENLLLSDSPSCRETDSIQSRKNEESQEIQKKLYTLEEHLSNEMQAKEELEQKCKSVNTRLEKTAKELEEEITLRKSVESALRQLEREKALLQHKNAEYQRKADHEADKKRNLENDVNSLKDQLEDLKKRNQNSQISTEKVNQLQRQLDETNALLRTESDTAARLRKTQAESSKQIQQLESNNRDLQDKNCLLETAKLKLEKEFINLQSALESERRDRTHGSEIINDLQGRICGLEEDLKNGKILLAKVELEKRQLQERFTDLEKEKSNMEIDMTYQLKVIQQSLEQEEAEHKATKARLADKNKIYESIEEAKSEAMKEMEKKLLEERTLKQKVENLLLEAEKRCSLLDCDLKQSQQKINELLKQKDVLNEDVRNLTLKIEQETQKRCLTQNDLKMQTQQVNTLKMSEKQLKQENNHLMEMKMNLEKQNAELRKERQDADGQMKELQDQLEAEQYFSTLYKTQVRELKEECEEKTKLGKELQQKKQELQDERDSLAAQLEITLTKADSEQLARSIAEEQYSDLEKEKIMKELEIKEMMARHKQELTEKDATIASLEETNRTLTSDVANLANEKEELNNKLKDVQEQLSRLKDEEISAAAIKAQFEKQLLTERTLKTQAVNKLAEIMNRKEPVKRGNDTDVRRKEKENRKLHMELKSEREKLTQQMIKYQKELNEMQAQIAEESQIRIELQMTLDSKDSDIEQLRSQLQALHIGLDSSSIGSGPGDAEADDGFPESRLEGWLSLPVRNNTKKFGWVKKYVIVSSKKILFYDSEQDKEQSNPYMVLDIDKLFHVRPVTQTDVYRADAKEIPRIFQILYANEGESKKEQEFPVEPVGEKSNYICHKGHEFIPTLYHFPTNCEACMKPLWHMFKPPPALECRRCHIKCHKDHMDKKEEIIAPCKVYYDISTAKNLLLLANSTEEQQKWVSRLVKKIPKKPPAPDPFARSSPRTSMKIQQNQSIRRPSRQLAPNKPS
# test summary: ROCK assay (LABCHIP peptide phosphorylation), ROCK2
# Assay type: biochemical
# condition summary: 5 μM ATP, 1.5 μM peptide substrate

Provide IC50 values for the following items, in order.
1. O=C(Nc1ccc(-c2n[nH]c(=O)c3ccccc23)c(Cl)c1)c1cnc2ccccn12 [Example 317]
2. O=C(Nc1ccc(-c2n[nH]c(=O)c3ccccc23)cc1)c1nn(CC2CCN(CCCCO)CC2)c2ccccc12 [Example 322]
3. Cc1cccc(-n2cnc(C(=O)Nc3ccc(-c4n[nH]c(=O)c5ccccc45)cc3)c2)c1 [Example 195]
4. COc1ccc2c(c1)CN(C(=O)Oc1ccc(-c3c[nH]c(=O)c4ccc(OC)cc34)cc1)C2 [Example 267]

OUTPUT:
1. 0.0001 to 0.1 µM
2. 0.101 to 1 µM
3. 0.0001 to 0.1 µM
4. 0.0001 to 0.1 µM

Provide IC50 values for the following items, in order.
1. O=C(Nc1ccc(-c2n[nH]c(=O)c3ccccc23)cc1)c1cn(C2CCNCC2)nn1 [Example 372]
2. O=C(Nc1ccc(-c2n[nH]c(=O)c3ccccc23)cc1)c1nn(CC2CCN(C(=O)OCC(F)(F)F)CC2)c2ccccc12 [Example 351]
3. O=C(Nc1ccc(-c2n[nH]c(=O)c3ccccc23)cc1)c1cnc2ccccn12 [Example 104]
4. O=C(Nc1ccc(-c2n[nH]c(=O)c3ccccc23)cc1)c1noc2ccccc12 [Example 118]
5. CN(C)c1cccc(C(=O)Nc2ccc(-c3n[nH]c(=O)c4ccccc34)cc2)c1 [Example 66]
6. O=C(Cc1ccc(-c2n[nH]c(=O)c3ccccc23)cc1)N1Cc2ccc(F)cc2C1 [Example 2]

OUTPUT:
["0.101 to 1 µM", "0.0001 to 0.1 µM", "0.0001 to 0.1 µM", "0.0001 to 0.1 µM", "0.0001 to 0.1 µM", "0.0001 to 0.1 µM"]
